Reference source for all entries: patent US20090298825A1

Listed below: IC50 values for each entry.
Molecular target: P2X7 receptor (Homo sapiens, UniProt Q99572)
Construct: endogenous in cells; host or cells: THP-1 cells differentiated with LPS and IFN-γ
Sequence (Q99572 whole entry): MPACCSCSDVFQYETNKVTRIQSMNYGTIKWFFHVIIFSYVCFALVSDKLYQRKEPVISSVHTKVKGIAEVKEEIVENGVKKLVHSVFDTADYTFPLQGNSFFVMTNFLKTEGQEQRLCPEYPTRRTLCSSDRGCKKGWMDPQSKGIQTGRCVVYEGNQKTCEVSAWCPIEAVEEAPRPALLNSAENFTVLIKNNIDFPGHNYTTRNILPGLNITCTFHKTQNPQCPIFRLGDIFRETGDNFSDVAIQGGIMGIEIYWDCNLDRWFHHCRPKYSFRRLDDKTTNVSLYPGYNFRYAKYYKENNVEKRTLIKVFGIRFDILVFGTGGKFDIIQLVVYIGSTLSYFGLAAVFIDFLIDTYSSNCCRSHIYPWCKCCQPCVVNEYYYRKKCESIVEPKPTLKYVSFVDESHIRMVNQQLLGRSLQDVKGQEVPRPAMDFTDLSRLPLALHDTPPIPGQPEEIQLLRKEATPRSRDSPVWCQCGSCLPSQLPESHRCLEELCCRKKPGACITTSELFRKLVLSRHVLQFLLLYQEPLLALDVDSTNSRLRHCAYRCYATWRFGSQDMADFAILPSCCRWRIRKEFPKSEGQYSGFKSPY
Assay: IL-1β release assay in differentiated THP-1 cells stimulated with BzATP (Example 9)
Type: cell-based
Conditions: four parameter logistic fit, read-out: IL-1β IC50

| compound | IC50 [nM] |
| --- | --- |
| Cc1ccc(-n2ccc3c(NC(=O)CC45CC6CC(CC(C6)C4)C5)cccc3c2=O)cn1 | 4.02 |
| Cc1ncccc1-n1ccc2c(NC(=O)Cc3ccc(C(F)(F)F)c(F)c3)cccc2c1=O | 11 |
| O=C(CC1(O)CCCCCC1)Nc1cccc2c(=O)n(C3CCNCC3)ccc12 | 760 |
| O=C(Cc1ccc(Cl)c(C(F)(F)F)c1)Nc1cccc2c(=O)n(C3CNCC3O)ccc12 (centres unmarked) | 2.44 |
| Cc1ncccc1-n1ccc2c(NC(=O)[C@H](C)c3ccc(Cl)cc3)cccc2c1=O | 43 |
| O=C(CC12CC3CC(CC(C3)C1)C2)Nc1cccc2c(=O)n(-c3cc[nH]n3)ccc12 | 0.295 |
| CC(C(=O)Nc1cccc2c(=O)n(-c3cccnc3F)ccc12)c1cccc(C(F)(F)F)c1F (centres unmarked) | 8.32 |
| O=C(CC1CCCCCC1)Nc1cccc2c(=O)n(C3CC3)ccc12 | 2.21 |
